Source of measurements: the supplement of paper PMC7877785

- assay remarks: self-splicing fitness, log relative to wild type (ln ratio); higher = more splicing; Tetrahymena group I intron in knt gene, E. coli kanamycin selection, DiMSum; sequences stand for … in CUCUCU…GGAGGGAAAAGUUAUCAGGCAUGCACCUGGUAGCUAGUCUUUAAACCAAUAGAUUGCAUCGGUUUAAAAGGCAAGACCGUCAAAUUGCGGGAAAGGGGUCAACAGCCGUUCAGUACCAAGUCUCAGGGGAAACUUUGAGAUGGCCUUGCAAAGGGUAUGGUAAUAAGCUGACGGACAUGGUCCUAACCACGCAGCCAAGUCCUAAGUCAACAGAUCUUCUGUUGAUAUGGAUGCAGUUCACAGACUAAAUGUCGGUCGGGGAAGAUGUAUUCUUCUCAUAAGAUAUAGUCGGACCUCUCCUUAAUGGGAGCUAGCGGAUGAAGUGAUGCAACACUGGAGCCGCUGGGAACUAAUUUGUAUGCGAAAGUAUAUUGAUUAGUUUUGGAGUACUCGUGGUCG;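 note: selection with 25 µg/mL kanamycin versus none on LB agar overnight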
- condition context: 37 °C
property name: self-splicing fitness (ln)
# output: bare number, no unit

seq string: GCUCAGCAAUAUUACGGCCU
self-splicing fitness (ln): -0.188
--
seq string: CCUAAGCAAUAUUACGAGUA
self-splicing fitness (ln): -1.98
--
seq string: CCCGAGCAAUAUUACGUGGG
self-splicing fitness (ln): -2.79
--
seq string: CAUUAGCAAUAUUACGAUAA
self-splicing fitness (ln): -1.75
--
seq string: GGUCAGCAAUAUUACGUUAG
self-splicing fitness (ln): -1.68

Problem: Dear colleague, please send me the reported self-splicing fitness (ln) for CGCCAGCAAUAUUACGAGGG when you can.
Result: -1.83

Problem: Note self-splicing fitness (ln) for the sequence shown: CACCAGCAAUAUUACGGGUG
Result: -2.26

Problem: Answer with the recorded self-splicing fitness (ln) for the sequence listed here: GAUAAGCAAUAUUACGGCAU
Result: 0.188

* * *

# self-splicing fitness (ln) annotations
- assay remarks: self-splicing fitness, log relative to wild type (ln ratio); higher = more splicing; Tetrahymena group I intron in knt gene, E. coli kanamycin selection, DiMSum; sequences stand for … in CUCUCU…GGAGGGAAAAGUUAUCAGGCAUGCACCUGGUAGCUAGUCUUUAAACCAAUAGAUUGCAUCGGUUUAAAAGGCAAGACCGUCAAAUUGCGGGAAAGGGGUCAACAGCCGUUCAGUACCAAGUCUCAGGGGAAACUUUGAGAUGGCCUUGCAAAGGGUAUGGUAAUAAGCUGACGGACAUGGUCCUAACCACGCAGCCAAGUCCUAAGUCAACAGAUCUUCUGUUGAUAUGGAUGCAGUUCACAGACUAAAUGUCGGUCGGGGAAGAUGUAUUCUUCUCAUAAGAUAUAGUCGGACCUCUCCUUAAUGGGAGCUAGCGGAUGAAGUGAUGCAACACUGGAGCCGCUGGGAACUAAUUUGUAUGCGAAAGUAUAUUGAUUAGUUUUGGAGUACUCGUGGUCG
- condition context: 37 °C
API note: the answer field is a bare number with no unit suffix.

Look over these answered cases.
seq string: CGCGAGCAAUAUUACGUGCA
result value: -0.511
--
seq string: AUCCAGCAAUAUUACGUACU
result value: -0.416
--
seq string: AAAUAGCAAUAUUACGUGCU
result value: -1.22
--
seq string: GCCCAGCAAUAUUACGAAUA
result value: -1.19

# evaluate next
Problem: Identify measured self-splicing fitness (ln) associated with CGUAAGCAAUAUUACGCGCU
Result: -1.52

* * *

Below: a set of entries, each annotated with reported self-splicing fitness (ln).
- assay remarks: self-splicing fitness, log relative to wild type (ln ratio); higher = more splicing; Tetrahymena group I intron in knt gene, E. coli kanamycin selection, DiMSum; sequences stand for … in CUCUCU…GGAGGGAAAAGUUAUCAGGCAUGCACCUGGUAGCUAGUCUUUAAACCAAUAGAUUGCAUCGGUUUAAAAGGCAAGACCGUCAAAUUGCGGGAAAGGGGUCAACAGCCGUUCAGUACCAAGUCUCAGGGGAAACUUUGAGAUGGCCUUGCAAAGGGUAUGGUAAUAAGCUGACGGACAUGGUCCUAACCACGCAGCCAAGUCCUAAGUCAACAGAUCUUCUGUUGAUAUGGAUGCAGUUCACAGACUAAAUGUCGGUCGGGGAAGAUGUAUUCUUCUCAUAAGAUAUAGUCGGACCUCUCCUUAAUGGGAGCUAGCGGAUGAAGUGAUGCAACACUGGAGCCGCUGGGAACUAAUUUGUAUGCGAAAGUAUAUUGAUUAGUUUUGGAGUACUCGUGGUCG
- condition context: 37 °C
Lab note: jot the number down without any unit.

seq string: ACGGAGCAAUAUUACGGAGU
self-splicing fitness (ln): -1.55

seq string: GGAGAGCAAUAUUACGGUCC
self-splicing fitness (ln): -1.17

seq string: GGCCAGCAAUAUUACGGACU
self-splicing fitness (ln): -1.2

seq string: AAGUAGCAAUAUUACGAUCG
self-splicing fitness (ln): -0.453

seq string: UGUAAGCAAUAUUACGUCCA
self-splicing fitness (ln): -0.132

seq string: CAGGAGCAAUAUUACGUAAU
self-splicing fitness (ln): -2.78

Problem: Name the recorded self-splicing fitness (ln) of the item UUGGAGCAAUAUUACGGGAG in your answer.
Result: -2.62

Problem: Consider the sequence GCCCAGCAAUAUUACGGAUG and give its recorded self-splicing fitness (ln).
Result: -1.49

* * *

- assay remarks: self-splicing fitness, log relative to wild type (ln ratio); higher = more splicing; Tetrahymena group I intron in knt gene, E. coli kanamycin selection, DiMSum; sequences stand for … in CUCUCU…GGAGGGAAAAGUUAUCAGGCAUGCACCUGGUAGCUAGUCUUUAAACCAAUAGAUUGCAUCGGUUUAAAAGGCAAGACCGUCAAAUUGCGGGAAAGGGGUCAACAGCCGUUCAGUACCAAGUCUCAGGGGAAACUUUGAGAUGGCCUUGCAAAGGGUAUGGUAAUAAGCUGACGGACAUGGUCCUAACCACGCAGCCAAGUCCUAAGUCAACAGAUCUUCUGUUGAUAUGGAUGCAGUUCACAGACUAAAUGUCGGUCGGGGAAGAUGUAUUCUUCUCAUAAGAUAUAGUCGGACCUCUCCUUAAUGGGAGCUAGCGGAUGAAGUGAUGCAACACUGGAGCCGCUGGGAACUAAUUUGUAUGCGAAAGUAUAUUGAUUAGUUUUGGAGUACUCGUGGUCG
- condition context: 30 °C
Classes are defined on self-splicing fitness (ln) with ranges lower = under -3, middle = from -3 up to -2, upper = -2 and over

seq string: UCAGAGCAAUAUUACGAGGA
label value: middle

Problem: Category lookup for the sequence CCCUAGCAAUAUUACGAAGA
Result: middle

* * *

- assay remarks: self-splicing fitness, log relative to wild type (ln ratio); higher = more splicing; Tetrahymena group I intron in knt gene, E. coli kanamycin selection, DiMSum; sequences stand for … in CUCUCU…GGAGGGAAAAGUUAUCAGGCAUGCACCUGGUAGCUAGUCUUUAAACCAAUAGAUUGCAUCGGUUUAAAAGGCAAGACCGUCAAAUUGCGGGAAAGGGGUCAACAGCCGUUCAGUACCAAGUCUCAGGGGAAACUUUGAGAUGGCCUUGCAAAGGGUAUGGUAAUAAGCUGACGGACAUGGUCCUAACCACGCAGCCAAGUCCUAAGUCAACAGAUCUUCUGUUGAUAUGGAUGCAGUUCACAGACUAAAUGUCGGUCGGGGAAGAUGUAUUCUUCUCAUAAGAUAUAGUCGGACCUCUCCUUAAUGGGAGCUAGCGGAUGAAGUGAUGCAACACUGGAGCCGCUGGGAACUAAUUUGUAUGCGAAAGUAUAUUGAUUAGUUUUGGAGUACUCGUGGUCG
- condition context: 30 °C
This section presents sequences with their documented self-splicing fitness (ln) values.
Form: value (number only, do not type unit).

// worked examples, self-splicing fitness (ln) included
seq string: ACGCAGCAAUAUUACGCCUG
self-splicing fitness (ln): -2.79
--
seq string: CCCGAGCAAUAUUACGCCGU
self-splicing fitness (ln): -3.61

Problem: Return value of self-splicing fitness (ln) for input ACGAAGCAAUAUUACGUUCG , no commentary.
Result: -1.3

Problem: Read the entry GCUCAGCAAUAUUACGCGUG and write its reported self-splicing fitness (ln).
Result: -1.99

* * *

- assay remarks: self-splicing fitness, log relative to wild type (ln ratio); higher = more splicing; Tetrahymena group I intron in knt gene, E. coli kanamycin selection, DiMSum; sequences stand for … in CUCUCU…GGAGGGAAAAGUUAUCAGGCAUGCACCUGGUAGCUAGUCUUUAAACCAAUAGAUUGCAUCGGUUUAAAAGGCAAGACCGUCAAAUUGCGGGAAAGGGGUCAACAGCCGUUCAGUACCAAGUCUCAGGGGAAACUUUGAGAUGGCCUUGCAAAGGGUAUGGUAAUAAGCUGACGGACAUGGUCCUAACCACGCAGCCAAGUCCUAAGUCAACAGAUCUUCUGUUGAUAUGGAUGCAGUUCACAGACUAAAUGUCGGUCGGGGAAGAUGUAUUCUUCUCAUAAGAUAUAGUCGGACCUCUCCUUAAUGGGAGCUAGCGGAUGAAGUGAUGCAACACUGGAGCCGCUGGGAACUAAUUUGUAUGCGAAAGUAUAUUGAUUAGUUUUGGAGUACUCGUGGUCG
- condition context: 37 °C
Consider the following sequences and their measured self-splicing fitness (ln) readings.
// print number alone

Recorded results for 2 sequences are shown here.
seq string: UGAAAGCAAUAUUACGCAGC
property name: self-splicing fitness (ln)
result value: -1.62
//
seq string: AGGAAGCAAUAUUACGAUGC
property name: self-splicing fitness (ln)
result value: -1.04

API: the following record is the query input.
Problem: Name the recorded self-splicing fitness (ln) of the sequence listed here: UUAUAGCAAUAUUACGACAA
Result: -0.279
